Biological target: T1, human TREM2 (triggering receptor expressed on myeloid cells 2) (human) (UniProt Q9NZC2)
T1 sequence (looked up): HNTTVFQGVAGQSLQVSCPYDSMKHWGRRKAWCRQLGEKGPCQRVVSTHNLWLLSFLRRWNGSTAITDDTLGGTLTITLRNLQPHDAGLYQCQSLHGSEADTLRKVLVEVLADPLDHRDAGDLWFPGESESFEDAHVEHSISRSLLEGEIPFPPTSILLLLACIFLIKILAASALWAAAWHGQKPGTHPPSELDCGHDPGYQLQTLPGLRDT
Test: 2nd screen, 100 nM Ab
List of Binding Signal (fold over 6E7 parental antibody) values.
I only need the number, in fold, no unit after it.

Observe how each entry below is paired with its result.
6E7 antibody affinity modulation variant V67 (antibody, V domains shown) VH: EVQLVQSGAEVKKPGESLKISCKGSGYSFTSYWIAWVRQMPGKGLEWMGMIYPGDSDTRYSPSFQGQVTISADKSISTAYLQWSSLKASDTAMYFCARQRTFYYDSSDYFDYWGQGTLVTVSS VL: DIQMTQSPSSVSASVGDRVTITCRASQGISSWLAWYQQKPGKAPKLLIYAASSLQNGVPSRFSGSGSGTDFTLTISSLQPEDFATYFCQQADSFPRTFGQGTKLEIK: 0.84
6E7 antibody affinity modulation variant V66 (antibody, V domains shown) VH: EVQLVQSGAEVKKPGESLKISCKGSGTSFTSYWIAWVRQMPGKGLEWMGIIYPGDSDTRYSPSFQGQVTISADKSISTAYLQWSSLKASDTAMYFCARQRTFYYDSSDYFDYWGQGTLVTVSS VL: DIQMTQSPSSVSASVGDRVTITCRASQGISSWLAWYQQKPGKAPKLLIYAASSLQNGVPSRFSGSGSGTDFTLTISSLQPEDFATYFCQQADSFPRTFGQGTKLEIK: 0.74

Challenge: Quick one: Binding Signal (fold over 6E7 parental antibody) for 6E7 antibody affinity modulation variant V43 (antibody, V domains shown) VH: EVQLVQSGAEVKKPGESLKISCKGSGYSFTSYWIAWVRQMPGKGLEWMGIIYPGDSGTRYSPSFQGQVTISADKSISTAYLQWSSLKASDTAMYFCARQRTFYYDSSDYFDYWGQGTLVTVSS VL: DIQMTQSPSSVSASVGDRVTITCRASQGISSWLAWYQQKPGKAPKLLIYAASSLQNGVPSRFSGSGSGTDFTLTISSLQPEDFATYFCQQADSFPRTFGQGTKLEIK ?
Response given: 0.33
